ASSAYED_TARGET: Oxysterols receptor LXR-beta (Homo sapiens)
Sequence (P55055 whole entry): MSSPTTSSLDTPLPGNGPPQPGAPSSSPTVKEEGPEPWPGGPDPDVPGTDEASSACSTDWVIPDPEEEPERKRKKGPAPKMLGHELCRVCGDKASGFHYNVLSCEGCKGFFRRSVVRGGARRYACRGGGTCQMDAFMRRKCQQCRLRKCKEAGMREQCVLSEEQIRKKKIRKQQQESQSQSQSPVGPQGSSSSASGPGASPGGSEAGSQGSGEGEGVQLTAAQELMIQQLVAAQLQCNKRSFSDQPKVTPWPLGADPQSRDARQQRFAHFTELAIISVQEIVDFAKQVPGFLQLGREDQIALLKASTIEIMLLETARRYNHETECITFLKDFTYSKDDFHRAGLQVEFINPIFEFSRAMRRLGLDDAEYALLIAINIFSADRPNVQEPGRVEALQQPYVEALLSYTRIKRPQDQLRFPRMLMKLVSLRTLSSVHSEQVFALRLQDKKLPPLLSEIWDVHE
ASSAY_OVERVIEW: Effective concentration against liver X receptor-beta in HEK293 cell transactivation assay
Assay type: cell-based
PROPERTY_MEASURED: EC50 (nM)
Please give a number only; it is taken to be in nM.

Ask | Provide EC50, tested on Oxysterols receptor LXR-beta (Homo sapiens), for CC(=O)Oc1ccc2c(c1)[C@@]1(C)CCCC(C)(C(=O)OC(=O)[C@@]3(C)CCC[C@]4(C)c5cc(OC(C)=O)ccc5CC[C@@H]34)[C@@H]1CC2 (stereo partly specified) .
Reply | 10

---

ASSAYED_TARGET: Oxysterols receptor LXR-alpha (Homo sapiens)
Sequence (Q13133 whole entry): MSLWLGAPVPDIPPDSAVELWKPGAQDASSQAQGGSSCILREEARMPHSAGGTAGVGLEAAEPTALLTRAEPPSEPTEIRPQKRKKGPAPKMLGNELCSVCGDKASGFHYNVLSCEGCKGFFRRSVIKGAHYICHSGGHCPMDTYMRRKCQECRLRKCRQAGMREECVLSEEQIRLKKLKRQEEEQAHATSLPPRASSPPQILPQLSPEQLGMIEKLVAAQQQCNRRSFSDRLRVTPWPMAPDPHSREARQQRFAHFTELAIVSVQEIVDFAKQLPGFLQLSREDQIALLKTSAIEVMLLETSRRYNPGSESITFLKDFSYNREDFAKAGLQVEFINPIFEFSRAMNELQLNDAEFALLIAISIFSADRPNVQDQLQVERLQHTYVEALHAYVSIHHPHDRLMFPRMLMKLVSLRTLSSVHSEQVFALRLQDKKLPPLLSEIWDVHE
ASSAY_OVERVIEW: Displacement of [3H2]-F3-methyl AA (1) from liver X receptor-alpha in SPA assay
Here, each record is paired with measured pIC50 data.
Scale: negative log10 of molar concentration, which is what pIC50 denotes.

MOLECULE: CC(=O)Oc1ccc2c(c1)[C@@]1(C)CCCC(C)(C(=O)OC(=O)[C@@]3(C)CCC[C@]4(C)c5cc(OC(C)=O)ccc5CC[C@@H]34)[C@@H]1CC2 (stereo partly drawn)
pIC50: 8.70

Ask | Name the recorded pIC50 of the molecule listed here: `CCCc1c(OCCCSc2ccc(CC(=O)O)cc2Cl)ccc2c(C(F)(F)F)noc12`
Reply | 7.45

---

ASSAYED_TARGET: Oxysterols receptor LXR-alpha (Homo sapiens)
ASSAY_OVERVIEW: Effective concentration against liver X receptor-alpha in HEK293 cell transactivation assay
Assay type: cell-based
MEASUREMENT_CONDITIONS: hek293
PROPERTY_MEASURED: EC50 (nM)
Please give a number only; it is taken to be in nM.

Ask | Name the recorded EC50 of the compound listed here: `CCCc1c(OCCCSc2ccc(CC(=O)O)cc2Cl)ccc2c(C(F)(F)F)noc12`
Reply | 1790
